target: PKR R510Q (Homo sapiens, UniProt P30613, R510Q); assay: PKR mutant assay (R510Q), AC50, LDH/NADH-coupled, absorbance at 340 nm; type: biochemical; settings: Table 2; enzyme assay; read-out: PK R510Q AC50
Sequence (P30613 whole entry R510Q): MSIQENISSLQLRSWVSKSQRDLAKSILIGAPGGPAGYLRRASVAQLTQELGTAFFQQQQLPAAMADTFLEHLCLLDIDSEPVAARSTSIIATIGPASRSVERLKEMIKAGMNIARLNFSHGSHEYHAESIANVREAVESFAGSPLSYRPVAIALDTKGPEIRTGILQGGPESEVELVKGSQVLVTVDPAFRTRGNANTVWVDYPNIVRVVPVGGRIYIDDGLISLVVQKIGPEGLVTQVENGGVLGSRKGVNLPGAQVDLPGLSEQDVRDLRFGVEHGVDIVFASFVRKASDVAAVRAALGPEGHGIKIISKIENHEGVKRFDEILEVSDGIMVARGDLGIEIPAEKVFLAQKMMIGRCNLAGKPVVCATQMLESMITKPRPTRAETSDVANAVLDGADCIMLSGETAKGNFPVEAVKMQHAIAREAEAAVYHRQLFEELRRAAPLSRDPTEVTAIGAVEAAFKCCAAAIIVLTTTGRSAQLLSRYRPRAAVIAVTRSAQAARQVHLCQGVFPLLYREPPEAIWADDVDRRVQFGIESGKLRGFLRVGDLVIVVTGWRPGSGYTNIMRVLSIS
readout-label: AC50

Cc1nc2c(s1)c1cnn(Cc3ccc([N+](=O)[O-])cc3)c(=O)c1n2C [Compound 48]: > 800 nM
Cn1c2nc(Cc3ccon3)sc2c2cnn(Cc3cccc4[nH]ncc34)c(=O)c21 [Compound 166]: 301 to 800 nM
Cn1c2nc(C(N)c3cc[nH]n3)sc2c2cnn(Cc3cccc4[nH]ncc34)c(=O)c21 (stereo not drawn) [Compound 177]: < 300 nM
